# system-tested: T1, hPD-1-Fc (human, UniProt Q15116 25-167)
# T1 construct: domain: IgV domain; also called human PD-1-Fc; not shown: human IgG1 Fc
# T1 sequence (Q15116 25-167 limits assumed): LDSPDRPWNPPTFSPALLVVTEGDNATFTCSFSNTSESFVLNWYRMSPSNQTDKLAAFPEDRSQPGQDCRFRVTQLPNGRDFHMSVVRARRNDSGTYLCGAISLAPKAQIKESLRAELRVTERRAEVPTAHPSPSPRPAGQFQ
# experiment: ELISA, hPD-1-Fc coated

{"columns": ["binder", "OD at 10 nM"],
 "data": [
  ["38A11 (antibody, V domains shown) VH: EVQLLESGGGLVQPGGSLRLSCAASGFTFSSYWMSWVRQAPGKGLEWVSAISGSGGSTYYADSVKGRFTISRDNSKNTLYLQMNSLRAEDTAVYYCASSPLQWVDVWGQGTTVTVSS VL: DIQMTQSPSSLSASVGDRVTITCRASQSISSWLAWYQQKPGKAPKLLIYDASTLQSGVPSRFSGSGSGTDFTLTISSLQPEDFATYYCQQGNSFPFTFGPGTKVDIK", "1.03 OD"],
  ["38B2 (antibody, V domains shown, 24H9 derivative, IgG; also called 780_54; hPD1 Ab (38B2)) VH: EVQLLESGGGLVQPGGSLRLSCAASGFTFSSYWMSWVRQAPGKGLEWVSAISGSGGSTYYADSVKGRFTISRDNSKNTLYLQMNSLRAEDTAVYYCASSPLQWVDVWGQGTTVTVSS VL: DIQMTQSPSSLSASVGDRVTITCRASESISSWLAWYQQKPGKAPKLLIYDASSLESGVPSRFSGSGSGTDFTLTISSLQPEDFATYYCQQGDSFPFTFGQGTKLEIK", "1.05 OD"],
  ["32A11 (antibody, V domains shown) VH: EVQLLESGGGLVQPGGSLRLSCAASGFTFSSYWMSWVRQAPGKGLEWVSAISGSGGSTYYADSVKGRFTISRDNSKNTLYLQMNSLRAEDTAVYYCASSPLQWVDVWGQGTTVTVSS VL: DIQMTQSPSSLSASVGDRVTITCRASESISIWLAWYQQKPGKAPKLLIYDASNLETGVPSRFSGSGSGTNFTLTISSLQPEDFATYYCQQADSFPFTFGPGTKVDIK", "0.921 OD"]
]}
